The origin of these recorded values is paper PMC11889159.

Biological target: bovine serum albumin (BSA) (Bos taurus, UniProt P02769)
Sequence (P02769 25-607): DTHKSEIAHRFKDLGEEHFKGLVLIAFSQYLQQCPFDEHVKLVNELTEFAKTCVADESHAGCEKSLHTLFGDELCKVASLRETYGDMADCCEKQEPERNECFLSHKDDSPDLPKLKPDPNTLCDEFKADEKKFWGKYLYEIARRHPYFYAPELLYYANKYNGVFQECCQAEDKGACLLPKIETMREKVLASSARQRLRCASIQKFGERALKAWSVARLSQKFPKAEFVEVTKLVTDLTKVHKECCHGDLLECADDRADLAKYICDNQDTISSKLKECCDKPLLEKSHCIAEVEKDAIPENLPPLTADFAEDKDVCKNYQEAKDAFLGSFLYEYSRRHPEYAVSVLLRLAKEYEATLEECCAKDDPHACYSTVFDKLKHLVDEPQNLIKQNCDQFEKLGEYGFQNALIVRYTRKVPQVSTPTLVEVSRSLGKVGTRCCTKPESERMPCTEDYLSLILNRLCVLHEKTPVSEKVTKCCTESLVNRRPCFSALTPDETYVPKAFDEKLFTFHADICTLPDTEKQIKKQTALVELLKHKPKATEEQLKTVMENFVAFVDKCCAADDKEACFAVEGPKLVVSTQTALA
Assay: biochemical
Conditions: LogKb, 293 K, pH 7.4
MEASUREMENT LABEL: pKd
Scale: pKd equals -log10([C]), with [C] in mol/L.

// lookup pKd | system=bovine serum albumin (BSA) (Bos taurus, UniProt P02769) | key= `CC[C@@]1(O)C(=O)OCc2c1cc1n(c2=O)Cc2cc3c(CN(C)C)c(O)ccc3nc2-1`
5.40

====

Molecular target: bovine serum albumin (BSA) (Bos taurus)
Assay: biochemical
Settings: logKb, Site marker: Warfarin 2 × 10^-6 mol/L; BSA 1.0 × 10^-6 mol/L
MEASUREMENT LABEL: Kd
Write the figure, then the unit, nothing else.

{"columns": ["COMPOUND", "TARGET ENTITY", "MEASUREMENT LABEL", "REPORTED VALUE"],
 "data": [
  ["CC[C@@]1(O)C(=O)OCc2c1cc1n(c2=O)Cc2cc3cc(O)ccc3nc2-1 [10-HCPT, 10-Hydroxycamptothecin]", "bovine serum albumin (BSA) (Bos taurus)", "Kd", "1.51 mM"]
]}

Now turn to the next compound.
Look up Kd: CC[C@@]1(O)C(=O)OCc2c1cc1n(c2=O)Cc2cc3ccccc3nc2-1 [CPT, Camptothecin]
5.5 mM

====

Target: bovine serum albumin (BSA) (Bos taurus)
Assay: biochemical
Details: logKb, Site marker: Ibuprofen 2 × 10^-6 mol/L; BSA 1.0 × 10^-6 mol/L
MEASUREMENT LABEL: Kd (µM)
Numeric only. Scale: µM

{"columns": ["COMPOUND", "TARGET ENTITY", "VALUE UNIT", "Kd"],
 "data": [
  ["CC[C@@]1(O)C(=O)OCc2c1cc1n(c2=O)Cc2cc3cc(O)ccc3nc2-1 [10-HCPT, 10-Hydroxycamptothecin]", "bovine serum albumin (BSA) (Bos taurus)", "µM", 44.7]
]}

Now turn to the next compound.
Look up Kd: CC[C@@]1(O)C(=O)OCc2c1cc1n(c2=O)Cc2cc3ccccc3nc2-1 [CPT, Camptothecin]
759

====

Molecular target: bovine serum albumin (BSA) (Bos taurus)
Assay: biochemical
Conditions: LogKb, 310 K, pH 7.4
MEASUREMENT LABEL: Kd (µM)
Numeric only. Scale: µM

// lookup Kd | system=bovine serum albumin (BSA) (Bos taurus) | key= `CC[C@@]1(O)C(=O)OCc2c1cc1n(c2=O)Cc2cc3c(CN(C)C)c(O)ccc3nc2-1`
5.13

====

Target: bovine serum albumin (BSA) (Bos taurus)
Assay: biochemical
Conditions: LogKb, 298 K, pH 7.4
MEASUREMENT LABEL: pKd
Scale: pKd equals -log10([C]), with [C] in mol/L.

// lookup pKd | system=bovine serum albumin (BSA) (Bos taurus) | key= `CC[C@@]1(O)C(=O)OCc2c1cc1n(c2=O)Cc2cc3c(CN(C)C)c(O)ccc3nc2-1`
5.36

====

Target: bovine serum albumin (BSA) (Bos taurus)
Assay: biochemical
The following compounds are shown together with reported Kd values.

Use these answered entries as a reference point.
{"columns": ["COMPOUND", "MEASUREMENT LABEL", "REPORTED VALUE"],
 "data": [
  ["CC[C@@]1(O)C(=O)OCc2c1cc1n(c2=O)Cc2cc3c(CN(C)C)c(O)ccc3nc2-1", "Kd", "11 µM"],
  ["CC[C@@]1(O)C(=O)OCc2c1cc1n(c2=O)Cc2cc3cc(O)ccc3nc2-1 [10-HCPT, 10-Hydroxycamptothecin]", "Kd", "121 µM"]
]}

Now turn to the next compound.
// lookup Kd | system=bovine serum albumin (BSA) (Bos taurus) | key= `CC[C@@]1(O)C(=O)OCc2c1cc1n(c2=O)Cc2cc3ccccc3nc2-1`
236 µM
